assay: Terminal half life in human; type: ADME, organism-based; settings: in vivo, read-out: beta t1/2 (converted)
Measurement Label: half-life (h)
Report as a plain number; the unit h is understood.

Request: Reported half-life, molecule CCCCN(CCCC)CC(O)c1cc(Cl)cc2c1-c1ccc(Cl)cc1/C2=C/c1ccc(Cl)cc1 (stereo unspecified) [LUMEFANTRINE] : ____
Response: 72

----------
tested on: Plasmodium falciparum; assay: Antiplasmodial activity against chloroquine-resistant Plasmodium falciparum K1; type: functional, organism-based
Measurement Label: pIC50
pIC50 here is simply -log10 of the concentration when that concentration is written in mol/L.

Request: Given CN1CCN(C2CCN(C(=O)CC3CCC4(CC3)OOC3(OO4)C4CC5CC(C4)CC3C5)CC2)CC1 (stereo unspecified) , state its recorded pIC50.
Response: 8.72
